valueKind: IC50

Req: Quick check: IC50 on DGKα (hDGKalpha(1-735)-N-His) (Homo sapiens, UniProt P23743), item CC1(c2nnc(-c3ccc4c(c3)N(Cc3ccc(-c5noc(C(F)(F)F)n5)cc3)C(=O)[C@@H](N)CS4(=O)=O)o2)COC1 ?
Resp: > 62500 nM

Req: Return IC50 measured with DGKα (hDGKalpha(1-735)-N-His) (Homo sapiens, UniProt P23743) given this compound: CC(C)(C#N)c1nnc(-c2ccc3c(c2)N(Cc2ccc(-c4ccc(C(F)(F)F)nc4)cc2)C(=O)[C@@H](N)CS3(=O)=O)o1
Sequence (P23743 whole entry): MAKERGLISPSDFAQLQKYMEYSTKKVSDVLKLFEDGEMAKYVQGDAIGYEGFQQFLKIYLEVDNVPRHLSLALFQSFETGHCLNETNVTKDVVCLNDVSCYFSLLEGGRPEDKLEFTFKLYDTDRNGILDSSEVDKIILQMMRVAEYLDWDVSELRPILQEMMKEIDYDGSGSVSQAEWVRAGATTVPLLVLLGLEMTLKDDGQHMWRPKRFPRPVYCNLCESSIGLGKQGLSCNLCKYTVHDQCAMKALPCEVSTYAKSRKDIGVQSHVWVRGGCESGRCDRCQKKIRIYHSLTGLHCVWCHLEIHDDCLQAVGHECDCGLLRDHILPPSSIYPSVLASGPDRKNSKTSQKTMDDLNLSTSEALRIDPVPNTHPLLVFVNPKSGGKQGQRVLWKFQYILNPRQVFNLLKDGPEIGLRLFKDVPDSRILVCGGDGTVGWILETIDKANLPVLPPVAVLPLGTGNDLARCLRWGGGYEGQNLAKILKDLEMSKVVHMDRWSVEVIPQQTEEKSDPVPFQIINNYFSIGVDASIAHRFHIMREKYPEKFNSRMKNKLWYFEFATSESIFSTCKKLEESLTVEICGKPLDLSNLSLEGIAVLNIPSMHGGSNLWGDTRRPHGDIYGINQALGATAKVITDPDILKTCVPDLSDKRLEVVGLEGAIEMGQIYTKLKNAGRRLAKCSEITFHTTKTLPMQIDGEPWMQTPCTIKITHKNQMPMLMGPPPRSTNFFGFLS
Resp: > 62500 nM

Req: API: value(readout= IC50, system= DGKα (hDGKalpha(1-735)-N-His) (Homo sapiens, UniProt P23743), query= COC(=O)N1CC2CC(c3nnc(-c4ccc5c(c4)N(Cc4ccc(-c6ccc(OC)cc6)cc4)C(=O)[C@@H](N)CS5(=O)=O)o3)(C2)C1 )
Resp: 3040 nM

Req: Kindly state the measured IC50 obtained for Cc1noc(-c2ccc(CN3C(=O)[C@@H](N)CS(=O)(=O)c4cc(F)c(-c5nnc(C(C)(C)C)o5)cc43)cc2)n1 with DGKα (hDGKalpha(1-735)-N-His) (Homo sapiens, UniProt P23743).
Resp: 613 nM

Req: Hi! What's the reported IC50 for COC(=O)N1CC2CC(c3nnc(-c4ccc5c(c4)N(Cc4ccc(-c6ccc(C(F)(F)F)cn6)cc4)C(=O)[C@@H](N)CS5(=O)=O)o3)(C2)C1 on DGKα (hDGKalpha(1-735)-N-His) (Homo sapiens, UniProt P23743)?
Resp: 1950 nM

Req: # get_value(readout= IC50, system= DGKα (hDGKalpha(1-735)-N-His) (Homo sapiens, UniProt P23743)) for CC(C)(C)c1nnc(-c2ccc3c(c2)N(Cc2ccc(-c4ncc(C(F)(F)F)o4)cc2)C(=O)[C@@H](N)CS3(=O)=O)o1
Resp: 884 nM

Values were extracted from patent US20260138976A1.
